// values below are reported CC50
Assay: NOVARTIS: Cytotoxicity against human hepatocellular carcinoma cell line (Huh7)
Assay type: toxicity, cell-based, Huh-7
Conditions: Huh7 cells (hepatocellular carcinoma cell line)

// solved cases for CC50 follow
compound	metric	reported
N#Cc1c2c(c(N3CCN(Cc4ccccc4)CC3)n3c1nc1ccccc13)CCC2	CC50	> 100 µM
C=CCOc1ccc(C2C(C(=O)OCC)=C(C)N=c3sc(=Cc4ccccc4O)c(=O)n32)cc1OCC (stereo unspecified)	CC50	53.3 µM
CCN1CCN(c2cc(C)c3cc(NC(=O)c4cc(=O)c5ccccc5o4)ccc3n2)CC1	CC50	> 10 µM
OCCCNc1cc(-c2ccccn2)nc(-c2ccccn2)n1	CC50	> 10 µM
Clc1cccc(Cl)c1C[n+]1ccc2ccccc2c1	CC50	> 100 µM

Proceed to the following item.
Notebook: N=c1c2c(n(CCc3ccccc3)c3c1CCC3)CCCC2 , CC50 read as 15.3 µM

----------
Assay: NOVARTIS: Cytotoxicity against human hepatocellular carcinoma cell line (Huh7)
Format: toxicity, cell-based, Huh-7
Details: Huh7 cells (hepatocellular carcinoma cell line)
In this section, each of the compounds is paired with its reported CC50.
Use µM as the unit, but write only the number.

// known answers, use as guide
compound	unitOfMeasure	CC50
OC1=C2C(=Nc3ccccc3SC2c2cccs2)c2ccccc21 (stereo not given)	µM	49.5
Cc1ccc2cc(C)c(Nc3ccc(Cl)cc3)nc2c1	µM	61
OCCNc1nc(Nc2ccc(Br)cc2)nc2ccccc12	µM	12.1

Let us examine a further case.
Per the record, CCCCSc1oc(C)nc1[P+](c1ccccc1)(c1ccccc1)c1ccccc1 has CC50 of 2.64

----------
Experiment: NOVARTIS: Cytotoxicity against human hepatocellular carcinoma cell line (Huh7)
Format: toxicity, cell-based, Huh-7
Conditions: Huh7 cells (hepatocellular carcinoma cell line)
Items are presented alongside their recorded CC50.

Solved cases below.
compound	CC50
CC(C)(C)NS(=O)(=O)c1cc(Cl)ccc1Cl	> 10.9 µM
C=CCN1/C(=C/C=C/c2sc3ccccc3[n+]2CC=C)Sc2ccccc21	> 10 µM
Cc1ccc(NC(=O)ON=C2CCCC2)cc1	45.7 µM

The recorded CC50 for entry CCOC(=O)c1cn(CC)c2cc(N3CCCCC3)c(F)cc2c1=O equals > 100 µM

Entry OC(CN1CCN(C/C=C/c2ccccc2)CC1)Cn1c2ccc(Br)cc2c2cc(Br)ccc21 (stereo unspecified) , CC50 reported as > 10 µM

----------
Property: log10 EC50; scope: individual compounds
Test system: Plasmodium falciparum
Test: NOVARTIS: Inhibition of Plasmodium falciparum 3D7 (drug-susceptible) proliferation in erythrocyte-based infection assay
Type: functional, organism-based
Conditions: Plasmodium falciparum, 3D7
Response schema: value (number) is log10 of EC50 in units of nM.

Some entries whose results are on file:
compound	testSystem	reported
CCN1CCN(CC(O)COc2ccc(OC)cc2)CC1 (configuration not stated)	Plasmodium falciparum	3.45
c1ccc(CCCNc2ccnc3cc4ccccc4cc23)cc1	Plasmodium falciparum	2.30

Given item CSc1nc(SC)c2c3c(sc2n1)CN(C)CC3 , the value recorded as its log10 EC50 is 2.88

Data point: Cc1cc(N2CCN(C)CC2)nc2ccc(NC(=O)Nc3ccccc3Cl)cc12 ; log10 EC50 = 3.49

The compound listed as CCOc1ccc(-c2c[n+](-c3ccccc3)c3n2CCS3)cc1 shows log10 EC50 equal to 2.62

log10 EC50 in this record for NC(Cc1ccccc1)C(=O)N1CCn2c(nc(-c3ccccc3)c2Nc2ccc3c(c2)OCO3)C1 (configuration not stated) : 1.48

# compound COc1ccc(-c2csc(Nc3ccc(O)cc3)n2)cc1OC ; its log10 EC50 = 3.47

Noted for Cc1cccc(Nc2nc(NCc3ccco3)c3ccccc3n2)c1 : its log10 EC50 reads 2.42

Recorded log10 EC50 (compound CCCCCCCCC(=O)Oc1ccccc1-c1nc2cc(C)ccn2c1NC(C)(C)CC(C)(C)C ): 2.85

Per the records, this compound ( O=c1c2ccccc2nc(/C=C/c2ccc([N+](=O)[O-])o2)n1-c1ccc(Br)cc1 ) has log10 EC50 equal to 2.96

----------
Assay: NOVARTIS: Cytotoxicity against human hepatocellular carcinoma cell line (Huh7)
Assay type: toxicity, cell-based, Huh-7
Conditions: Huh7 cells (hepatocellular carcinoma cell line)
metric: CC50

molecule CC(C)CNC(=O)c1cnc(NCCCN2CCCCC2C)nc1NCC(C)C (configuration not stated) , CC50 observed: > 10 µM

Lab note: measured CC50 of CCCNC(=O)c1cc(NC(=O)c2cc(C(F)(F)F)cc(C(F)(F)F)c2)ccc1N1CCCCC1 was 10.2 µM

----------
Assay: NOVARTIS: Cytotoxicity against human hepatocellular carcinoma cell line (Huh7)
Assay type: toxicity, cell-based, Huh-7
Settings: Huh7 cells (hepatocellular carcinoma cell line)
Reported CC50 values for a set of compounds

Sample answers from the record:
compound	CC50
O=C(CSc1nc2ccccc2[nH]1)Nc1ccc2c(c1)OCO2	> 10 µM
COc1ccc(OC)c(NC(=O)c2cnn3c(C(F)(F)F)cc(-c4ccc(OC)c(OC)c4)nc23)c1	> 10 µM
CC(=O)N1CCC(N(C(=O)Nc2c(F)cccc2F)C(C)C)CC1	> 100 µM
N=C1NC(=O)/C(=C/C=C/c2ccc([N+](=O)[O-])o2)S1	17.1 µM
CN1CCCC1CCNc1ncc(C(=O)NCCc2ccccc2)c(NCC2CCCCC2)n1 (stereo not given)	> 10 µM

The value of CC50 measured for the compound Cc1ccc(CN=C(N)Nc2nc(C)cc(C)n2)cc1 turned out to be 11.2 µM

CC50 measured on CCCC[C@@H](C)C(O)[C@H]1C(=O)N[C@@H](CC)C(=O)N(C)CC(=O)N(C)[C@@H](CC(C)C)C(=O)N[C@@H](C(C)C)C(=O)N(C)[C@@H](CC(C)C)C(=O)N[C@@H](C)C(=O)N[C@H](C)C(=O)N(C)[C@@H](CC(C)C)C(=O)N(C)[C@@H](CC(C)C)C(=O)N(C)[C@@H](C(C)C)C(=O)N1C (stereo not given in full) = > 10 µM

Note to self: CC50 recorded for O=C(Nc1ccc(NC(=O)c2ccco2)cc1Cl)c1ccccc1 was > 10 µM

Record COc1cccc2c1C(=O)c1c(O)c3c(c(O)c1C2=O)C[C@@](O)(C(=O)CO)C[C@@H]3O[C@@H]1C[C@H](N)[C@H](O)[C@H](C)O1 , field CC50: 0.485 µM

Input N#CC(C#N)C(/C(Sc1ccc([N+](=O)[O-])cc1)=C(/O)c1ccccc1)c1cccs1 (stereo not given) . Output CC50: > 10 µM

----------
Assay: NOVARTIS: Cytotoxicity against human hepatocellular carcinoma cell line (Huh7)
Assay type: toxicity, cell-based, Huh-7
Details: Huh7 cells (hepatocellular carcinoma cell line)
metric: CC50

Here is how some molecules turned out for CC50.
molecule	CC50
CNC1=C(N(Cc2ccc(Cl)c(Cl)c2)C(C)=O)C(=O)c2ccccc2C1=O	0.126 µM
O=C1N(c2ccccc2)C[C@@H]2C[C@@H](c3ccc4nsnc4c3)N3CCC[C@@]123	9.25 µM

For CC(C)(C)c1ccc(C(=O)Nc2ccc(NC(=O)c3ccc(-c4cccc([N+](=O)[O-])c4)o3)cc2)cc1 the molecule record lists CC50 as > 10 µM

The recorded CC50 for CC[n+]1c(/C=C/c2ccc(SC)cc2)ccc2ccccc21 is > 10 µM

The molecule listed as O=C(CC1OC(=O)c2ccccc21)c1ccc(Cl)cc1 (stereo not given) shows CC50 equal to > 100 µM

So for c1ccc(OCCOc2ccc(Nc3ccnc4cc5ccccc5cc34)cc2)cc1 , the logged CC50 turned out to be 6.11 µM

CC50 recorded for this molecule, CCSc1nc2sc3c(c2c(=O)n1CC)CCN(C)C3 , is > 100 µM

Recorded CC50 (molecule CC(CCc1ccccc1)NCC(O)c1cccc([N+](=O)[O-])c1 (stereo not given) ): 42.5 µM

COc1ccc(C2C(C(=O)Nc3cc(C)on3)c3ccccc3C(=O)N2C2CCCCC2)cc1 (stereo not given) has a reported CC50 of > 10 µM

Kindly note the recorded CC50 for Oc1c2c(nc3cc(-c4ccccc4)nn13)CCCC2 , which is > 100 µM

get_value(item= COc1ccc(-n2nc3c(c2NC(=O)C=Cc2cc(OC)c(OC)c(OC)c2)CSC3)cc1 , readout=CC50) returns > 100 µM

Documented CC50 of CCCCCCn1c(=O)c(C(=O)NCC[N+](CC)(CC)CC)c(O)c2ccccc21 : > 100 µM

Query O=C1C(O)=CC(=Nc2ccc(Cc3ccncc3)cc2)c2ccccc21 yields CC50 of > 10 µM

Lab book: CC50 of C=C[C@H]1CN2CC[C@H]1C[C@@H]2[C@@H](O)c1ccnc2ccccc12 noted as > 6.25 µM

The molecule Cc1cn2c3ccccc3n(CCN3CCOCC3)c2n1 showed CC50 equal to > 100 µM

For CC(=O)OCN1C(=O)N(COC(C)=O)C2C1N(COC(C)=O)C(=O)N2COC(C)=O (stereo not given) the molecule record lists CC50 as > 100 µM

CC(C)(C)c1cc(CCC(=O)Nc2c3c(nc4ccccc24)N(c2cccc(Cl)c2)CC3)cc(C(C)(C)C)c1O has a reported CC50 of > 100 µM

Entry CCCCN(C)Cc1ccc2c(NC(=O)c3ccc(C)s3)c(C(=O)OC)sc2n1 ; CC50 = 1.52 µM

Reported CC50 of Cc1ccc(CNC(=O)CSc2nc3ccsc3c(=O)n2CCCCCC(=O)NCCc2ccccc2)cc1 : > 100 µM
